Reported soluble fraction (log2) values for a set of sequences
# Assay Text: soluble fraction after stress (log2 fold change); higher = more stays soluble; pooled small domains, quantitative proteomics
# Settings: stress: 50 degC
Observation Type: soluble fraction (log2)

>>> df
                             sequence_chain         observation_type  result_value
0  HMDSRVRHAVLTTLLGKRIVDDLVEKGELPGTPLVLATAPGLDRDLEQLIAQRVVTALLTTV  soluble fraction (log2)        -0.082
1  HMATVHPIRIQGGMTTQQGGKTVWLWVSDEGRLMTEDEIAGESGGTVSSRMVRGVRVLTGTGVIYG  soluble fraction (log2)         -2.02
2  HMKSERHALILSLIEKKNVETQEDLAELLKERGVAVTQATVSRDIKELRLIKVLSETGGYKYATVDKAE  soluble fraction (log2)        -0.103
3  HMTEEPISDGIKKLVEEWENIEGNLIMIFHGIQKHYGYVPRNVAKYVSEAIDVPLTRIYEILTFYNYFTM  soluble fraction (log2)         0.142
4  HMAEPAEDLLSLEGMDKGLAYQLASNGVVTREDLAELATDDLLEIREMDAEQAAALIMKAREHWFEAEQQ  soluble fraction (log2)         0.211
5  HMDAEEISILLEKAVLQLPEKQKMIFQLKYFEDLSYKDIQIITGGSIGGLKANYHHAVTKIEKLLS  soluble fraction (log2)       -0.0727
6  HMPDRQKDIQNWQQIAETLLNMLDKYVAALETGKTGLAEAYKAIFAETLRRLDDRLDPEQFLP  soluble fraction (log2)         -1.54
